# Target: BACE1 (human recombinant β-secretase) (Homo sapiens)
# Sequence (P56817 46-501): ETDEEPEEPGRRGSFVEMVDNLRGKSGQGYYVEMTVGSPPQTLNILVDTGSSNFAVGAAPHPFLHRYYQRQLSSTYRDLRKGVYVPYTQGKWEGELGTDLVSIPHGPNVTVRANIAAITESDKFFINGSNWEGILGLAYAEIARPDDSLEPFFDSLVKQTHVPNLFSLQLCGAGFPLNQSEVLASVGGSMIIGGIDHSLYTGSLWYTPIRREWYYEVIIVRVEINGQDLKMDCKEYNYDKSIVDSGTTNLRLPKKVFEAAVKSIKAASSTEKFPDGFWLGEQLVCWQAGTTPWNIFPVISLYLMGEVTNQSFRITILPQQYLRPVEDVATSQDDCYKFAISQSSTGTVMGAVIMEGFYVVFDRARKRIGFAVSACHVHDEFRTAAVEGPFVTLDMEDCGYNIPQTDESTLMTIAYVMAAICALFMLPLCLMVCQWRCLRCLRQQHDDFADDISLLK
# Procedure summary: Kinetic analysis of BACE1 inhibition (Dixon and Lineweaver−Burk plots)
# Format: biochemical
# Experimental context: Dixon and Lineweaver−Burk plots
Measure name: Inhibition type BACE1

{"columns": ["Molecule", "Target", "Test result"],
 "data": [
  ["Cc1cc2c(c(C)c1CCOC1OC(CO)C(O)C(O)C1O)C(=O)C(C)C2O [(2R,3R)-Pteroside C, (2R,3R)-pteroside C]", "BACE1 (human recombinant β-secretase) (Homo sapiens)", "Mixed-type"],
  ["Cc1cc2c(c(C)c1CCO)C(=O)[C@@H](C)[C@H]2O [(2S,3R)-Pterosin C, (2S,3R)-pterosin C]", "BACE1 (human recombinant β-secretase) (Homo sapiens)", "Noncompetitive"],
  ["Cc1cc2c(c(C)c1CCO)C(=O)[C@H](C)C2 [(2R)-Pterosin B, (2R)-pterosin B]", "BACE1 (human recombinant β-secretase) (Homo sapiens)", "Noncompetitive"],
  ["Cc1cc2c(c(C)c1CCOC1OC(CO)C(O)C(O)C1O)C(=O)C(C)C2 [(2R)-Pteroside B, (2R)-pteroside B]", "BACE1 (human recombinant β-secretase) (Homo sapiens)", "Noncompetitive"],
  ["Cc1cc2c(c(C)c1CCOC1OC(CO)C(O)C(O)C1O)C(=O)C(C)(C)C2O [(3S)-Pteroside D, (3S)-pteroside D]", "BACE1 (human recombinant β-secretase) (Homo sapiens)", "Mixed-type"]
]}

Next, consider the following molecule.
Query string: For the molecule Cc1cc2c(c(C)c1CCO)C(=O)[C@H](C)[C@H]2O [(2R,3R)-Pterosin C, (2R,3R)-pterosin C] , what Inhibition type BACE1 is on record?
Result string: Mixed-type
